molecular target: SETD2(1434-1711) (Homo sapiens, UniProt Q9BYW2); construct: SETD2 (1434-1711) Assay; catalogue N/A; assay: SETD2 (1434-1711) assay; assay type: biochemical; details: read-out: SETD2 (1434-1711)
pIC50: −log10 of the molar value.
Listed here are compounds together with their documented pIC50.
Readout label: pIC50

| Compound | Censoring sign | Recorded number |
| --- | --- | --- |
| CC(=O)N1CCN(C2CCCC(NC(=O)c3cc4c(F)ccc(C)c4[nH]3)C2)CC1C(F)(F)F (stereo not shown) [compound 1018] | = | 7.52 |
| Cc1cn(Cc2cnc(C(NC(=O)c3cc4c(F)ccc(C)c4[nH]3)C3CC3)c(C)c2)c(C)n1 (stereo not shown) [compound 317] | = | 7.00 |
| Cc1ccc(F)c2cc(C(=O)Nc3cc(F)cc(N4CCC(N5CCN(C)C(=O)C5)C4)c3)[nH]c12 (stereo not shown) [compound 17] | = | 8.05 |
| Cc1ccc(F)c2cc(C(=O)N[C@@H]3CCCC(N4CCC(=O)N(C)CC4)C3)[nH]c12 (stereo partly shown) [compound 832] | = | 6.22 |
| Cc1ccc(F)c2cc(C(=O)NC3CCCC(c4cncnc4)C3)[nH]c12 (stereo not shown) [compound 380] | < | 5.00 |
| CC(=O)N1[C@H](C)CN([C@H]2CCC[C@@H](NC(=O)c3cc4c(F)ccc(C)c4[nH]3)C2)C[C@H]1C [compound 1062] | = | 8.00 |
| Cc1ccc(F)c2cc(C(=O)Nc3cccc(N4CCC(N5CCCC5)CC4)c3)[nH]c12 [compound 180] | = | 7.52 |
| Cc1ccc(F)c2cc(C(=O)NCCc3ccccc3N3CCN(C)CC3)[nH]c12 [compound 540] | = | 5.77 |
| Cc1ccc(F)c2cc(C(=O)Nc3cccc(N4CCN(C)CC4C)c3)[nH]c12 (stereo not shown) [compound 318] | = | 6.70 |
| COCc1nnc(-c2cccc(NC(=O)c3cc4c(F)ccc(C)c4[nH]3)c2)s1 [compound 81] | = | 7.52 |
| Cc1c(C(=O)N[C@H]2CC[C@H](NC(=O)CCN)CC2)[nH]c2c(C)cccc12 [compound 655] | = | 4.60 |
| Cc1ccc(F)c2cc(C(=O)N[C@@H]3CCC[C@@H](N4CCC(N(C)C(=O)CN(C)C)C4)C3)[nH]c12 (stereo partly shown) [compound 909] | = | 5.33 |
| Cc1ccc(F)c2cc(C(=O)Nc3cccc([C@H]4CC[C@@H](N(C)C)C4)c3)[nH]c12 [compound 324] | = | 7.30 |
| Cc1ccc(F)c2cc(C(=O)Nc3cccc(C4CCN(C)C(=O)C4)c3)[nH]c12 (stereo not shown) [compound 160] | = | 7.05 |
| Cc1cccc2cc(C(=O)NCC(O)C3CC3)[nH]c12 (stereo not shown) [compound 731] | = | 3.86 |
| Cc1cccnc1C1(NC(=O)c2cc3cccc(C)c3[nH]2)CNC1 [compound 591] | < | 4.30 |

###

Biological target: SETD2(1434-1711) (Homo sapiens, UniProt Q9BYW2)
Construct: SETD2 (1434-1711) Assay; catalogue N/A
Sequence (Q9BYW2 1434-1711): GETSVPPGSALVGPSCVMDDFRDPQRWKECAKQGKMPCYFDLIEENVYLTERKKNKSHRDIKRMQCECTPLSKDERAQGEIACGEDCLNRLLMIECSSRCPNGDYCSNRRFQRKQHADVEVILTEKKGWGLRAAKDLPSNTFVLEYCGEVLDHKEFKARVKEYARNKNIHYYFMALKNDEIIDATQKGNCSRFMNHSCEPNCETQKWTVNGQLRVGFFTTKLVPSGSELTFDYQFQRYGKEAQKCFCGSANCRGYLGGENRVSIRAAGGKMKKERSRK
Assay: SETD2 (1434-1711) assay
Assay type: biochemical
Conditions: read-out: SETD2 (1434-1711)
pIC50: −log10 of the molar value.

| Molecule | Censoring sign | pIC50 |
| --- | --- | --- |
| Cc1ccc(F)c2cc(C(=O)N[C@@H]3CCC[C@H](N4CCN(C(=O)C(C)C)C(C(F)(F)F)C4)C3)[nH]c12 (some centres unmarked) [compound 1112] | = | 7.70 |
| CC(=O)N[C@H]1CC[C@H](NC(=O)c2cc3cccc(C)c3[nH]2)CC1 [compound 698] | = | 4.20 |
| Cc1ccc(F)c2cc(C(=O)Nc3cnn(C4CCC(N(C)C)CC4)c3)[nH]c12 (centres unmarked) [compound 565] | = | 4.94 |
| CC(=O)N1CCN([C@@H]2CCC[C@@H](NC(=O)c3cc4c(F)ccc(C)c4[nH]3)C2)C[C@H]1CO [compound 1076] | = | 5.85 |
| Cc1cccc2cc(C(=O)Nc3cccc(CN4CCOCC4)c3)[nH]c12 [compound 478] | = | 5.39 |
| CC(=O)N(C)C1CCCN(c2cccc(NC(=O)c3cc4c(F)ccc(C)c4[nH]3)c2)C1 (centres unmarked) [compound 42] | = | 7.70 |
| Cc1ccc(F)c2cc(C(=O)Nc3cccc(-c4cnn(CCO)c4)c3)[nH]c12 [compound 219] | = | 7.22 |
| Cc1cccc2cc(C(=O)NCCc3ccccc3N3CCC(CCN(C)C)CC3)[nH]c12 [compound 549] | = | 5.24 |
| CNc1cccc(-c2cccc(NC(=O)c3cc4c(F)ccc(C)c4[nH]3)c2)n1 [compound 326] | = | 6.70 |
| Cc1ccc(F)c2cc(C(=O)N[C@@H]3CCC[C@H](N4CCN5C(=O)CCC[C@@H]5C4)C3)[nH]c12 [compound 1044] | = | 7.70 |
| Cc1cccc2cc(C(=O)NCc3cccc(N4CCCCC4)c3)[nH]c12 [compound 750] | < | 3.70 |
| CCc1cccnc1C(NC(=O)c1cc2cccc(C)c2[nH]1)C1CC1 (centres unmarked) [compound 521] | = | 5.16 |
| Cc1cccc2cc(C(=O)NCC3CCCCC3N3CCOCC3)[nH]c12 (centres unmarked) [compound 508] | = | 4.98 |
| Cc1ccc(F)c2cc(C(=O)NCC3(c4ccccc4N4CCN(C)CC4)CC3)[nH]c12 [Cpd. No. 392] | = | 7.22 |
| Cc1cccnc1C(CCCN1CCNCC1)NC(=O)c1cc2cccc(C)c2[nH]1 (centres unmarked) [compound 567] | = | 4.87 |
| Cc1ccc(F)c2cc(C(=O)Nc3cccc(-n4ccnc4)c3)[nH]c12 [compound 221] | = | 7.00 |
| Cc1cc2ccccc2nc1C(NC(=O)c1cc2cccc(C)c2[nH]1)C1CC1 (centres unmarked) [compound 472] | = | 6.05 |

Where these numbers come from: patent US12116358B2
